# TEST_DESCRIPTION: Pharmacokinetic study after oral dosing, rat
# Type: in vivo, SD Rat
# MEASUREMENT_CONTEXT: male, SD (Sprague-Dawley), rat, in vivo, po, 300 mg/kg, oral; suspension in 0.5% methocel + 0.1% tween 80 in water; SD Rat male; 300 mg/kg; particle size D50 = 101 μm; Fed; 5 mL/kg; read-out: C24 h

| COMPOUND | UNIT_TEXT | concentration at 24 h |
| --- | --- | --- |
| COc1cc(C)c2[nH]ccc2c1CN1CCC2(C[C@H]1c1ccc(C(=O)O)cc1)CC(F)(F)C2 [Form A] | nM | 2700 |
